B1: PKD2L1 (parent)
chain: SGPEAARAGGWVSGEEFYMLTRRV

- Variants of: B1
- assay_info: protein stability index of a GFP-peptide fusion (GPS, HEK-293T) (PSI 1-6); higher = more stable;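 further: lentivirally expressed fusions sorted by FACS into six bins by GFP to DsRed ratio, PSI derived from sequencing read proportions per bin multiplied by bin number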
- condition_parameters: c terminus: a fixed tail appended
The following ranges of protein stability index define the classes used here: 1 = under 2, 2 = from 2 up to 3, 3 = 3 and over

// below: answered variants
   variant  assigned_class
0     E16L               1
1     S13R               2
2     E16N               2

Request: Class label required: R23P
Result: 2

Request: Class label required: G14V
Result: 2
